The reported numbers originate from PubChem BioAssay AID1963826.

System: 926638-142-R-J1-PDC complex spheroid viability;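 further: spheroids exposed to drugs for one week before readout; percent viability relative to DMSO vehicle control wells set as 100%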
Assay name: Anticancer human tumor 926638-142-R-J1-PDC patient-derived endometrial carcinoma cell line growth inhibition [POLQ]
Measurement setup: second compound 3.16 µM; first compound 0.0316 µM; stronger effect = lower value
Property measured: viability, T/C (%)
Report the figure in % without appending any unit label.

1) C#Cc1c(F)ccc2cc(O)cc(-c3ncc4c(N5CC6CCC(C5)N6)nc(OCC56CCCN5CC(F)C6)nc4c3F)c12 (centres undefined) + COC1C(OC(N)=O)C(O)C(Oc2ccc3c(O)c(NC(=O)c4ccc(O)c(CC=C(C)C)c4)c(=O)oc3c2C)OC1(C)C = 78.9
2) CC1COCCN1c1cc(-c2ccnn2C)c2ccnc(-c3ccn[nH]3)c2n1 (centres undefined) + COC1C(OC(N)=O)C(O)C(Oc2ccc3c(O)c(NC(=O)c4ccc(O)c(CC=C(C)C)c4)c(=O)oc3c2C)OC1(C)C = 90.6
3) CC1COCCN1c1cc(-c2ccnn2C)c2ccnc(-c3ccn[nH]3)c2n1 (centres undefined) + Nc1ccc(C#CCN(C(=O)Cc2ncc(C(F)(F)F)cc2C(F)(F)F)c2ccc(F)cc2)nn1 = 89.8
4) O=C(Nc1ccc(O)c(NS(=O)(=O)c2ccc(F)cc2)c1)c1ccc(-c2ccccc2)cc1 + Cc1cccc(N(C)C(=O)C2C(O)CCN2c2nc(C)cc(C(F)(F)F)c2C#N)c1 = 79.6
5) CC(C)n1c(=O)n(C)c2cnc3cc(F)c(-c4ccc(OCCCN5CCCCC5)nc4)cc3c21 + Cc1cccc(N(C)C(=O)C2C(O)CCN2c2nc(C)cc(C(F)(F)F)c2C#N)c1 = 89.5

Provide measured viability, T/C on 926638-142-R-J1-PDC complex spheroid viability for C#Cc1c(F)ccc2cc(O)cc(-c3ncc4c(N5CC6CCC(C5)N6)nc(OCC56CCCN5CC(F)C6)nc4c3F)c12 (centres undefined) + Nc1ccc(C#CCN(C(=O)Cc2ncc(C(F)(F)F)cc2C(F)(F)F)c2ccc(F)cc2)nn1 please.
88

Provide measured viability, T/C on 926638-142-R-J1-PDC complex spheroid viability for C=CC(=O)N1CCN(c2nc(=O)n(-c3c(C)ccnc3C(C)C)c3nc(-c4c(O)cccc4F)c(F)cc23)C(C)C1 (centres undefined) + Cc1cccc(N(C)C(=O)C2C(O)CCN2c2nc(C)cc(C(F)(F)F)c2C#N)c1 please.
91.8

Provide measured viability, T/C on 926638-142-R-J1-PDC complex spheroid viability for COc1cc2cc(C(=O)CCC(=O)O)sc2cc1OC + Cc1cccc(N(C)C(=O)C2C(O)CCN2c2nc(C)cc(C(F)(F)F)c2C#N)c1 please.
79.5

Provide measured viability, T/C on 926638-142-R-J1-PDC complex spheroid viability for C=CCn1c(=O)c2cnc(Nc3ccc(N4CCN(C)CC4)cc3)nc2n1-c1cccc(C(C)(C)O)n1 + Nc1ccc(C#CCN(C(=O)Cc2ncc(C(F)(F)F)cc2C(F)(F)F)c2ccc(F)cc2)nn1 please.
80
